Entries and their IC50
- measured.target: saccharase (from porcine intestinal mucosa) (Sus scrofa, UniProt P56729)
- Construct: maltase and saccharase prepared from porcine intestinal mucosa; from tissue; host or cells: porcine intestinal mucosa
- Sequence (P56729 with tags, fused parts or gaps limits assumed): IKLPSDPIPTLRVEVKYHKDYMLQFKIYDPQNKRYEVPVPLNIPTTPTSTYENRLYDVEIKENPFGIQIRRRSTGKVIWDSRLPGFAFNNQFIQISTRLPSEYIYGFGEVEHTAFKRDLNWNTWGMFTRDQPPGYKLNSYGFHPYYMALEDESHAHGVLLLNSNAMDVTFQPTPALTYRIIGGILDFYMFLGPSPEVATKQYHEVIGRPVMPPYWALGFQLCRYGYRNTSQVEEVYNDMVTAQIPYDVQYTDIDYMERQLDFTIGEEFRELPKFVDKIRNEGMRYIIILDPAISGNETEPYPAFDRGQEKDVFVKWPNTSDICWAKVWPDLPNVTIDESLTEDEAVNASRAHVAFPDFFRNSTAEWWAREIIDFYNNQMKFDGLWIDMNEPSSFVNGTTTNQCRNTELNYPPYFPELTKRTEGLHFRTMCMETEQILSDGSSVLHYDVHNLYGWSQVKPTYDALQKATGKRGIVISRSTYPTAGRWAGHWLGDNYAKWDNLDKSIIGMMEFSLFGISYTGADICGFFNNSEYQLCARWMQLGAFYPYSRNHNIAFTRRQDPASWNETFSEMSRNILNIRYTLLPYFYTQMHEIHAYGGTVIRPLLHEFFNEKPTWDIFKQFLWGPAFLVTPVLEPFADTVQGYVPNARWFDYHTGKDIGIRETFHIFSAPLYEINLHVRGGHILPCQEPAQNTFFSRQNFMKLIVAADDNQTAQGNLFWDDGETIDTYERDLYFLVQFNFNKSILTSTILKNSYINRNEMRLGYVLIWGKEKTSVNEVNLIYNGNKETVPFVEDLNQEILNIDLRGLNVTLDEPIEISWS
- Sequence (P56729 with tags, fused parts or gaps partner limits assumed): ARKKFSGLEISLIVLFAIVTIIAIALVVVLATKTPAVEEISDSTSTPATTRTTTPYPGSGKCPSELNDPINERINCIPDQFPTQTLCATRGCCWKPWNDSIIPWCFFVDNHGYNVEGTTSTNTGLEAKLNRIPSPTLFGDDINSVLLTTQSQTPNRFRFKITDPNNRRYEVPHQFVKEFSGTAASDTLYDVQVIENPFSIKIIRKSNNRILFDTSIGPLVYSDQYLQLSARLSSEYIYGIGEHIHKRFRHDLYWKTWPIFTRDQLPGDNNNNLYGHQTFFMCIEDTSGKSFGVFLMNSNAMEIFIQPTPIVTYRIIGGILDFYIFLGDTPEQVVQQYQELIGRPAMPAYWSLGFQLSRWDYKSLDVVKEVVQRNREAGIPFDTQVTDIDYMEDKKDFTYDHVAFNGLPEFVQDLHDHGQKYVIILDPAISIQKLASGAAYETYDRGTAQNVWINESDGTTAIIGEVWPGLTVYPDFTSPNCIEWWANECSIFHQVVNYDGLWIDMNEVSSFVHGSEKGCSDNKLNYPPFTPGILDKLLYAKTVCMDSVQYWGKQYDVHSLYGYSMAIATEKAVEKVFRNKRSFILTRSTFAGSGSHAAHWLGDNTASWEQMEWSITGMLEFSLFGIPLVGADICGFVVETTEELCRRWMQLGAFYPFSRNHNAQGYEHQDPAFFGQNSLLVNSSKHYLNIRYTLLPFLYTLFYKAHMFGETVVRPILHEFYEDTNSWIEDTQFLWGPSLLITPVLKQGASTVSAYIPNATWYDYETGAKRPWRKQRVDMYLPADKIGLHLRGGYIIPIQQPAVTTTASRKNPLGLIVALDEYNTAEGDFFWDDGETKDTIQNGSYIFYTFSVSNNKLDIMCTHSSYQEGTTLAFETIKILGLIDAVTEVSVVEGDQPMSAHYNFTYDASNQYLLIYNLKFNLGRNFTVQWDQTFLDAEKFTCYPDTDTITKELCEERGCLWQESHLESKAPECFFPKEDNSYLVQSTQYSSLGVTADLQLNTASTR
- assay.notes: inhibitory activity against saccharase prepared from porcine intestinal mucosa (substrate sucrose)
- Assay type: biochemical
- details: Table 2; porcine intestinal mucosa saccharase, substrate sucrose, pH 6.8, 37° C.
Kindly answer with a numeric value in nM, unit omitted.

Examples from the recorded data:
[
  {
    "compound": "OC[C@@]1(O)C[C@H](NCC(O)c2ccccc2)[C@H](O)[C@@H](O)[C@@H]1O (single isomer, unassigned) [drawing 19]",
    "value.units": "nM",
    "readout.number": 2.9
  },
  {
    "compound": "OCC(O)C(O)C(O)C(O)CN[C@H]1C[C@](O)(CO)[C@@H](O)[C@H](O)[C@H]1O (stereo partly drawn)",
    "value.units": "nM",
    "readout.number": 36
  }
]

Please examine the following record next.
### Prompt # input compound: OC[C@@]1(O)C[C@H](NCC(O)c2ccccc2)[C@H](O)[C@@H](O)[C@@H]1O (single isomer, unassigned) [drawing 18] ; wanted: its IC50
### Response 19

###

- measured.target: maltase (from porcine intestinal mucosa)
- assay.notes: inhibitory activity against maltase prepared from porcine intestinal mucosa (substrate maltose)
- Format: biochemical
- details: given in the examples; read-out: IC50 (maltase)
measurement.type: IC50 (nM)
Kindly answer with a numeric value in nM, unit omitted.

Examples from the recorded data:
[
  {
    "compound": "OCC(N[C@H]1C[C@H](CO)[C@@H](O)[C@H](O)[C@H]1O)c1ccccc1 (stereo partly drawn) [N-[α-(hydroxymethyl)benzyl]validamine]",
    "measurement.type": "IC50",
    "readout.number": 4500
  },
  {
    "compound": "COc1ccccc1C(O)CN[C@H]1C[C@](O)(CO)[C@@H](O)[C@H](O)[C@H]1O (stereo partly drawn) [Example 41]",
    "measurement.type": "IC50",
    "readout.number": 63
  }
]

### Prompt # input compound: OC[C@@]1(O)C[C@H](NC2CCCC2O)[C@H](O)[C@@H](O)[C@@H]1O (single isomer, unassigned) [Example 38 Isomer showing [α]D^24-16.2°, N-(2-hydroxycyclopentyl)valiolamine] ; wanted: its IC50
### Response 58

###

- measured.target: maltase (from porcine intestinal mucosa)
- assay.notes: inhibitory activity against maltase prepared from porcine intestinal mucosa (substrate maltose)
- Type: biochemical
- details: given in the examples; read-out: IC50 (maltase)
measurement.type: pIC50
Expect pIC50 as a plain number equal to -log10 of the molar concentration.

Examples from the recorded data:
[
  {
    "compound": "OC[C@@]1(O)C[C@H](NC2CCCCC2)[C@H](O)[C@@H](O)[C@@H]1O [Example 37, N-cyclohexylvaliolamine]",
    "measured.target": "maltase (from porcine intestinal mucosa)",
    "measurement.type": "pIC50",
    "readout.number": 6.39
  },
  {
    "compound": "OC[C@H]1C[C@H](NCC(O)COc2ccccc2)[C@H](O)[C@@H](O)[C@@H]1O (stereo partly shown) [Example 18, N-(2-hydroxy-3-phenoxypropyl)validamine]",
    "measured.target": "maltase (from porcine intestinal mucosa)",
    "measurement.type": "pIC50",
    "readout.number": 5.47
  },
  {
    "compound": "CC(C)(C)c1cc(CN[C@H]2C[C@](O)(CO)[C@@H](O)[C@H](O)[C@H]2O)cc(C(C)(C)C)c1O [Example 40]",
    "measured.target": "maltase (from porcine intestinal mucosa)",
    "measurement.type": "pIC50",
    "readout.number": 7.37
  }
]

### Prompt # input compound: OCC(N[C@H]1C[C@H](CO)[C@@H](O)[C@H](O)[C@H]1O)[C@@H](O)[C@H](O)[C@H](O)CO (stereo partly shown) [Example 19] ; wanted: its pIC50
### Response 6.23

###

- measured.target: saccharase (from porcine intestinal mucosa) (Sus scrofa, UniProt P56729)
- Construct: maltase and saccharase prepared from porcine intestinal mucosa; from tissue; host or cells: porcine intestinal mucosa
- assay.notes: inhibitory activity against saccharase prepared from porcine intestinal mucosa (substrate sucrose)
- Type: biochemical
- Text: […]
measurement.type: IC50 (nM)
Kindly answer with a numeric value in nM, unit omitted.

### Prompt # input compound: OCC(CO)N[C@H]1C[C@](O)(CO)[C@@H](O)[C@H](O)[C@H]1O [drawing 17] ; wanted: its IC50
### Response 4.6

###

- measured.target: saccharase (from porcine intestinal mucosa) (Sus scrofa, UniProt P56729)
- Construct: maltase and saccharase prepared from porcine intestinal mucosa; from tissue; host or cells: porcine intestinal mucosa
- assay.notes: inhibitory activity against saccharase prepared from porcine intestinal mucosa (substrate sucrose)
- Type: biochemical
- details: IC50 (saccharase), given in the examples
measurement.type: pIC50
Expect pIC50 as a plain number equal to -log10 of the molar concentration.

Examples from the recorded data:
[
  {
    "compound": "OC[C@@]1(O)C[C@H](NC2CCCC2)[C@H](O)[C@@H](O)[C@@H]1O",
    "readout.number": 7.60
  },
  {
    "compound": "OC[C@@]1(O)C[C@H](NC2CCCC2O)[C@H](O)[C@@H](O)[C@@H]1O (single isomer, unassigned) [Example 38 Isomer showing [α]D^24 +40.4°, N-(2-hydroxycyclopentyl)valiolamine]",
    "readout.number": 6.89
  },
  {
    "compound": "OC[C@@]1(O)C[C@H](NC2CCCC2O)[C@H](O)[C@@H](O)[C@@H]1O (single isomer, unassigned) [Example 38 Isomer showing [α]D^24-16.2°, N-(2-hydroxycyclopentyl)valiolamine]",
    "readout.number": 7.62
  },
  {
    "compound": "OC[C@H]1C[C@H](NC2CCCC2O)[C@H](O)[C@@H](O)[C@@H]1O (some centres unmarked) [Example 21, N-(2-hydroxycyclopentyl)validamine]",
    "readout.number": 6.89
  }
]

Please examine the following record next.
### Prompt # input compound: OC[C@H]1C[C@H](NC2CCCCC2O)[C@H](O)[C@@H](O)[C@@H]1O (some centres unmarked) [Example 20, N-(2-hydroxycyclohexyl)validamine] ; wanted: its pIC50
### Response 7.02

###

- measured.target: saccharase (from porcine intestinal mucosa) (Sus scrofa, UniProt P56729)
- Construct: maltase and saccharase prepared from porcine intestinal mucosa; from tissue; host or cells: porcine intestinal mucosa
- assay.notes: inhibitory activity against saccharase prepared from porcine intestinal mucosa (substrate sucrose)
- Assay type: biochemical
- details: Table 2; porcine intestinal mucosa saccharase, substrate sucrose, pH 6.8, 37° C.
pIC50: −log10 of the molar value.
Record class 1 whenever pIC50 is at 8 or higher; record class 0 when lower.

These recorded examples may help you get a feel for the data.
[
  {
    "compound": "OC[C@H]1C[C@H](NCC(O)c2ccccc2)[C@H](O)[C@@H](O)[C@@H]1O (stereo partly drawn) [drawing 32]",
    "measured.target": "saccharase (from porcine intestinal mucosa) (Sus scrofa, UniProt P56729)",
    "category.label": "class 0"
  },
  {
    "compound": "OC[C@H]1C[C@H](NCCCc2ccccc2)[C@H](O)[C@@H](O)[C@@H]1O [drawing 24]",
    "measured.target": "saccharase (from porcine intestinal mucosa) (Sus scrofa, UniProt P56729)",
    "category.label": "class 0"
  },
  {
    "compound": "OCC(N[C@H]1C[C@H](CO)[C@@H](O)[C@H](O)[C@H]1O)C(O)c1ccccc1 (stereo partly drawn) [drawing 33]",
    "measured.target": "saccharase (from porcine intestinal mucosa) (Sus scrofa, UniProt P56729)",
    "category.label": "class 0"
  }
]

### Prompt Decide: pIC50 of OC[C@@]1(O)C[C@H](NCCc2ccccc2)[C@H](O)[C@@H](O)[C@@H]1O [drawing 26] >= 8?
### Response class 1

###

Entries and their pIC50
- measured.target: saccharase (from porcine intestinal mucosa) (Sus scrofa)
- Construct: maltase and saccharase prepared from porcine intestinal mucosa; from tissue; host or cells: porcine intestinal mucosa
- assay.notes: inhibitory activity against saccharase prepared from porcine intestinal mucosa (substrate sucrose)
- Assay type: biochemical
- details: given in the examples; read-out: IC50 (saccharase)
Counter-ions that a name gives are not always drawn.
Expect pIC50 as a plain number equal to -log10 of the molar concentration.

Examples from the recorded data:
[
  {
    "compound": "COc1ccccc1C(O)CN[C@H]1C[C@](O)(CO)[C@@H](O)[C@H](O)[C@H]1O (some centres unmarked)",
    "readout.number": 8.00
  },
  {
    "compound": "OC[C@@]1(O)C[C@H](NC2CCCCC2)[C@H](O)[C@@H](O)[C@@H]1O",
    "readout.number": 7.82
  },
  {
    "compound": "CC(C)=CCC/C(C)=C/CN[C@H]1C[C@H](CO)[C@@H](O)[C@H](O)[C@H]1O [Example 12, N-geranylvalidamine sulfate]",
    "readout.number": 6.10
  },
  {
    "compound": "CC(C)(C)c1cc(CN[C@H]2C[C@](O)(CO)[C@@H](O)[C@H](O)[C@H]2O)cc(C(C)(C)C)c1O",
    "readout.number": 8.17
  }
]

Please examine the following record next.
### Prompt # input compound: OCC(N[C@H]1C[C@H](CO)[C@@H](O)[C@H](O)[C@H]1O)[C@@H](O)[C@H](O)[C@@H](O)CO (some centres unmarked) ; wanted: its pIC50
### Response 7.10
